Target: T1, soluble KDR extracellular domain (ECD) (Calbiochem) (human, UniProt P35968 20-764)
T1 construct: extracellular domain; Bought protein; also called KDR-ECD; VEGF Receptor 2 D1-7, Cat. #676490
T1 sequence (P35968 20-764): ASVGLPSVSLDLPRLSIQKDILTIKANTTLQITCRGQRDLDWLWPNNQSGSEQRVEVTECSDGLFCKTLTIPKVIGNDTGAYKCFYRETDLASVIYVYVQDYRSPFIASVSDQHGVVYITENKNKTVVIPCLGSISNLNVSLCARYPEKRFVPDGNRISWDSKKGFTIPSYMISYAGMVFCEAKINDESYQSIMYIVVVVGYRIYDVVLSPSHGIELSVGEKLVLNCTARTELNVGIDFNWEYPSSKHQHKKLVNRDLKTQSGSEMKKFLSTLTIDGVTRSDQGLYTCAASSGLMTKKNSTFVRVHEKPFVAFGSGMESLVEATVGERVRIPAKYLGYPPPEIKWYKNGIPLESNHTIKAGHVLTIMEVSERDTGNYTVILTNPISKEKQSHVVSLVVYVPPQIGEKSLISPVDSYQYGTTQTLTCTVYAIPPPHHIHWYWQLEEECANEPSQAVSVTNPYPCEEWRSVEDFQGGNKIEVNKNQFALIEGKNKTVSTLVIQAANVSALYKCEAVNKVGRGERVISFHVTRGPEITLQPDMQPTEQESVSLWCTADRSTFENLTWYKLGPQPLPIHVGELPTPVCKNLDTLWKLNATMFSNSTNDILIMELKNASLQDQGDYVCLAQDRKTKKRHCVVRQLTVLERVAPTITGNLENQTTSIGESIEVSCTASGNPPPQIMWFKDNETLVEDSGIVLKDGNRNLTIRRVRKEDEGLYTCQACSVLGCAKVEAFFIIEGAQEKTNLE
Experiment: Limited Antigen ELISA, KDR coat 3.125 ng/mL, supernatant 1:25
Reported ELISA reading values for a set of binders
The reply should be a number, written without any unit.

The cases that follow already have their ELISA reading on record.
BINDER	ELISA reading
29F7 (antibody, V domains shown, Fully human mAb from XenoMouse hybridoma, tested as hybridoma supernatant) VH: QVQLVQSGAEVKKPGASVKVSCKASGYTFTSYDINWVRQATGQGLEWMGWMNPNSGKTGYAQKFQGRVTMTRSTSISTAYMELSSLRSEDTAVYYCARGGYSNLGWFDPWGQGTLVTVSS VL: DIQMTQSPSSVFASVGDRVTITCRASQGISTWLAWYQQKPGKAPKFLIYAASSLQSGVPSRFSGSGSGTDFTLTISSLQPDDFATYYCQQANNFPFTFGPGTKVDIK	0.25
21A1 (antibody, V domains shown, Fully human mAb from XenoMouse hybridoma, tested as hybridoma supernatant) VH: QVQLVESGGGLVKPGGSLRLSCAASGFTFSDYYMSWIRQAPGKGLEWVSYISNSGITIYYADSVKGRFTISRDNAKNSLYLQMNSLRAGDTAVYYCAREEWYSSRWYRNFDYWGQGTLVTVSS VL: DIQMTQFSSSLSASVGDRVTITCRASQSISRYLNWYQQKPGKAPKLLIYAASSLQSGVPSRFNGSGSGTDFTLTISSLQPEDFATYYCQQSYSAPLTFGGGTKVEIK	0.23
32F4 (antibody, V domains shown, Fully human mAb from XenoMouse hybridoma, tested as hybridoma supernatant) VH: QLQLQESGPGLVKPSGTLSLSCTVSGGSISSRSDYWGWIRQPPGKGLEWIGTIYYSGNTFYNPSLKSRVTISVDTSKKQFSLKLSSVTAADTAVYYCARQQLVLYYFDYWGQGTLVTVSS VL: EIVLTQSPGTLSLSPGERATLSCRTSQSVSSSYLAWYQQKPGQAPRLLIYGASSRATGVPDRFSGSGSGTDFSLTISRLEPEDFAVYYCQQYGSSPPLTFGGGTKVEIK	0.23

Query :: GET /values?readout=ELISA reading&item= 29A3 (antibody, V domains shown, Fully human mAb from XenoMouse hybridoma, tested as hybridoma supernatant) VH: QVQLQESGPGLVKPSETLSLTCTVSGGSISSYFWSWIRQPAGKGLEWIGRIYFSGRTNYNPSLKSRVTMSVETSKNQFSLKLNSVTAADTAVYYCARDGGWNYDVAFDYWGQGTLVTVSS VL: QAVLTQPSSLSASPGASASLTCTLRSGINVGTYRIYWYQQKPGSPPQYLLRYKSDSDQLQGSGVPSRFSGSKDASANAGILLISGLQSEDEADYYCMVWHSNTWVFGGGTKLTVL
Result :: 0.16

Query :: // repeat for 33D5 (antibody, V domains shown, Fully human mAb from XenoMouse hybridoma, tested as hybridoma supernatant) VH: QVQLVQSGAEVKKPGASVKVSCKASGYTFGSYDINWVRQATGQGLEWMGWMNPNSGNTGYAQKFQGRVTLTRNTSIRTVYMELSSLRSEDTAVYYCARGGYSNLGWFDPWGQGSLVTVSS VL: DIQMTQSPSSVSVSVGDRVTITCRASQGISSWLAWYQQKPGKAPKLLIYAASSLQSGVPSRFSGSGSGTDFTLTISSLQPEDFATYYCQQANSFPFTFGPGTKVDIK and report
Result :: 0.33
